# assay.method.text: Pasireotide plasma concentrations
# Assay type: in vivo
# measurement.setup: human, im, 80 mg
*1 amine or outer side, *2 acyl side, *3 side chain or, on linkers, in order; H or OH if unused. Where a SMILES comes first, the peptide text is derived from it. Side-chain parts run from the residue outwards. [ ]: non-standard residue; d: D form. The star is where a group is joined. Ethylenediamine = C(CN[*:2])N[*:1]; Hyp = O=C(O)[C@@H]1C[C@@H](O)CN1; Phg = N[C@H](C(=O)O)c1ccccc1; CO = O=C([*:1])[*:2]; Bn = c1ccc(C*)cc1
attribute.measured: Cmax (ng/mL)

- NCCCC[C@@H]1NC(=O)[C@@H](Cc2c[nH]c3ccccc23)NC(=O)[C@H](c2ccccc2)NC(=O)[C@@H]2C[C@@H](OC(=O)NCCN)CN2C(=O)[C@H](Cc2ccccc2)NC(=O)[C@H](Cc2ccc(OCc3ccccc3)cc2)NC1=O [Pasireotide LAR, pasireotide] (cyclo([Hyp]([CO-Ethylenediamine])[Phg][dW]KY(Bn)F)): 13.7

###

# assay.method.text: Pasireotide plasma concentrations
# Type: in vivo
# measurement.setup: human, im, 120 mg
*1 amine or outer side, *2 acyl side, *3 side chain or, on linkers, in order; H or OH if unused. Where a SMILES comes first, the peptide text is derived from it. Side-chain parts run from the residue outwards. [ ]: non-standard residue; d: D form. The star is where a group is joined. Ethylenediamine = C(CN[*:2])N[*:1]; Hyp = O=C(O)[C@@H]1C[C@@H](O)CN1; Phg = N[C@H](C(=O)O)c1ccccc1; CO = O=C([*:1])[*:2]; Bn = c1ccc(C*)cc1
attribute.measured: Cmax (ng/mL)

• NCCCC[C@@H]1NC(=O)[C@@H](Cc2c[nH]c3ccccc23)NC(=O)[C@H](c2ccccc2)NC(=O)[C@@H]2C[C@@H](OC(=O)NCCN)CN2C(=O)[C@H](Cc2ccccc2)NC(=O)[C@H](Cc2ccc(OCc3ccccc3)cc2)NC1=O [Pasireotide LAR, pasireotide] (cyclo([Hyp]([CO-Ethylenediamine])[Phg][dW]KY(Bn)F)) = 23.2
